assayed.system: human MCHR1 (Homo sapiens)
Construct: expressed in transfected cells; host or cells: CHO cell clone 57 (described in WO01/82925); membrane fraction
Sequence (Q99705 whole entry): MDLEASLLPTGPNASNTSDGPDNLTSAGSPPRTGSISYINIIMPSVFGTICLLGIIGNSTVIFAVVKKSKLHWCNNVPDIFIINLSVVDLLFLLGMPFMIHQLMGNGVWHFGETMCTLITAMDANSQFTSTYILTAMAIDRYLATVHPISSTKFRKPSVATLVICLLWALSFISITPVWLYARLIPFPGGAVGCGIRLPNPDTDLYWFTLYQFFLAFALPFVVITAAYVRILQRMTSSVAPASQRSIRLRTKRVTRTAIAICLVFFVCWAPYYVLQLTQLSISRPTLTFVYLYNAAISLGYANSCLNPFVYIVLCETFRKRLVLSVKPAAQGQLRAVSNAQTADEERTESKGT
assay: Human MCH receptor 1 (MCHR1) binding inhibitory activity, binding assay with [125I]-MCH(4-19)
assay.setup: test compound 0.1 μM, human MCHR1-expressing CHO cell membrane fraction, read-out: Binding inhibition rate % (0.1 μM)
Method: Determination of Human MCH Receptor 1 (MCHR1) Binding Inhibitory Activity of Test Compound Using Binding Assay 1. Preparation of Membrane Fraction […] The MCHR1 ligand binding inhibitory activity of the test compound was determined as follows. An MCHR1-expressing CHO cellular membrane fraction (173 μL) diluted with an assay buffer was dispensed to a 96 well polypropylene plate (3363, Corning). […] The binding inhibition rate of the test compound was calculated by the following formula. […]
# cutoff 90% applies to inhibition at 0.1 µM; >= gives T, < gives F

compound: Cc1cc(-n2ccc3oc(-c4ccc(Cl)cc4)cc3c2=O)ccc1OCC1(C#N)CC1
cat: F
--
compound: COc1cc(-n2ccc3oc(-c4ccc(Cl)cc4)cc3c2=O)ccc1OCC1CCCO1 (centres unmarked)
cat: T
--
compound: COC(=O)c1ccc(-n2ccc3oc(-c4ccc(Cl)cc4)cc3c2=O)cc1OC
cat: F
--
compound: COc1ccc(-n2ccc3oc(-c4ccc(Cl)cc4)cc3c2=O)cc1OC
cat: F
--
compound: CCc1cc(-n2ccc3oc(-c4ccc(Cl)cc4)cc3c2=O)ccc1OCC1(C#N)CC1
cat: F
--
compound: COc1cc(-n2ccc3oc(-c4ccc(Cl)cc4)cc3c2=O)ccc1OCC1(C#N)CC1
cat: T
--
compound: COc1cc(-n2ccc3oc(-c4ccc(Cl)cc4)cc3c2=O)ccc1OCC1CC1(F)F (centres unmarked)
cat: F
--
compound: COc1ccc(-c2cc3c(=O)n(-c4ccc(OCC5(C#N)CC5)c(OC)c4)ccc3o2)cc1
cat: F
--
compound: COc1cc(-n2ccc3oc(-c4ccc(C(F)(F)F)cc4)cc3c2=O)ccc1OCC1(C#N)CC1
cat: F
--
compound: COc1cc(-n2ccc3oc(-c4ccc(F)cn4)cc3c2=O)ccc1OCC1(C#N)CC1
cat: F
--
compound: COc1cc(-n2ccc3oc(-c4ccc(OC(F)(F)F)cc4)cc3c2=O)ccc1OCC1(C#N)CC1
cat: F
--
compound: COc1cc(-n2ccc3oc(-c4ccc(Cl)cc4)cc3c2=O)cnc1OCC1(C#N)CC1
cat: F
--
compound: COc1cc(-n2ccc3oc(-c4ccccc4F)cc3c2=O)ccc1OCC1(C#N)CC1
cat: F
--
compound: COc1cc(-n2ccc3oc(-c4ccc(Cl)cc4)cc3c2=O)ccc1OCC(C)(C)O
cat: T
